- TARGET UNDER TEST: Cytochrome P450 3A4 (Homo sapiens)
- Sequence (P08684 whole entry, the tested form may be a part): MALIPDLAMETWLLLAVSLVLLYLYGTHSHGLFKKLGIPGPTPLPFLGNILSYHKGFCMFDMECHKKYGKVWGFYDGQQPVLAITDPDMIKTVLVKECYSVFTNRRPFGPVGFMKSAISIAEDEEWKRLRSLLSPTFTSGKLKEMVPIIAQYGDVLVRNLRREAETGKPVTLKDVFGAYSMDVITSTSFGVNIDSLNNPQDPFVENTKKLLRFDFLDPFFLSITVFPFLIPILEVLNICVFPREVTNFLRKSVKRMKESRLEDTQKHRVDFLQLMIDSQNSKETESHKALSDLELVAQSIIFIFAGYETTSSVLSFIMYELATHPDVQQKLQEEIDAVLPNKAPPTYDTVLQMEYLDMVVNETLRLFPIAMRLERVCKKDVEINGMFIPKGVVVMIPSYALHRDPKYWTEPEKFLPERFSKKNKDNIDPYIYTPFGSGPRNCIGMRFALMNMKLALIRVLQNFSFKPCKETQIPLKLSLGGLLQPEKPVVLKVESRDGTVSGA
- EXPERIMENT DESCRIPTION: Binding affinity to C-terminal four-histidine tagged human CYP3A4delta3 to 24 residues expressed in Escherichia coli assessed as spectral dissociation constant by spectrophotometric method
Collected pKd values appear next to each entry.
In simple prose, pKd is minus the logarithm base ten of a concentration in moles per litre.

Ask: Record request: pKd value, item `c1ccncc1`
Reply: 2.35

Ask: Return reported pKd; argument: `CC(C)(C)OC(=O)NCCCCCC(=O)NCc1cccnc1`
Reply: 3.98
